meta.source: the RNAGym collection of RNA variant scans (doi:10.7554/elife.90254)

B1: LINE1-full (parent)
chain: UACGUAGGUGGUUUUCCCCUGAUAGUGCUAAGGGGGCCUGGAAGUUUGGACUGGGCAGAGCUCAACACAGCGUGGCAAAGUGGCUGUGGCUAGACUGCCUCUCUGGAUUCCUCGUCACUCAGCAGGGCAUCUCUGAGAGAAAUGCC

variants of: B1; test: self-cleavage, relative activity (ratio to wild type); higher = more cleavage; in vitro, sequencing; the parent is a self-cleaving ribozyme
QUANTITY: self-cleavage
Reply with the value as a number alone.

1. A30C G36A :: 1.09

// query Answer with the recorded self-cleavage of A6U U104A only.
// result 1.16

// query Answer with the recorded self-cleavage of U14C G32A only.
// result 0.99

// query Answer with the recorded self-cleavage of U85C G139A only.
// result 0.2
